- System name: baNadD (Bacillus anthracis)
- Sequence (C3L5T6 whole entry, looked up): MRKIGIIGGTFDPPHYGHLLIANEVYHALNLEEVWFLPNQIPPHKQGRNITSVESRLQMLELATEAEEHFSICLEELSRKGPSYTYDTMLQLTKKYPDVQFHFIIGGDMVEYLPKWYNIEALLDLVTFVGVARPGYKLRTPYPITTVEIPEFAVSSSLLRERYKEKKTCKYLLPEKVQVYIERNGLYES
- Protocol details: biochemical
- Type: biochemical
Task for the reader: assign each of the following compounds its reported […]. anthracis.

[…]. anthracis for O=C(CSC(=O)c1ccccc1)Nc1ccc(Cl)cn1 [compound 177] is 21%

[…]. anthracis for O=C(NNC(=O)C1CC=CCC1C(=O)O)c1cccc([NH2+][O-])c1 (centres unmarked) [compound 171] is 24%

[…]. anthracis for Cc1c(NC(=O)CSS(=O)(=O)O)c(=O)n(-c2ccccc2)n1C [compound 023] is 34%

[…]. anthracis for NS(=O)(=O)c1ccc(N/C=C2\C(=O)Oc3ccccc3C2=O)cc1 [compound 218] is 0%

[…]. anthracis for Nc1c(C(=O)Nc2ccc(F)c(F)c2)sc2nc(-c3ccncc3)ccc12 [compound 287] is 0%

[…]. anthracis for CN1C(=O)S/C(=C\c2ccc(OCC(=O)O)c(I)c2)C1=O [compound 069] is 7%

[…]. anthracis for O=C(Nc1ccc(O)cc1)c1ccc(Cl)c(Cl)c1 [compound 086] is 0%

[…]. anthracis for O=C(CSc1nc2ccccc2[nH]1)Nc1cccc(C(=O)O)c1 [compound 248] is 4%

[…]. anthracis for N=C(NNS(=O)(=O)c1ccccc1)c1ccccn1 [compound 161] is 68%

[…]. anthracis for O=C(O)C1C2C=CC(C2)C1C(=O)Nc1ccc(Cl)c(Cl)c1 (centres unmarked) [compound 152] is 0%

[…]. anthracis for Cc1cc(OCC(=O)Nc2ccc(S(N)(=O)=O)cc2)ccc1Cl [compound 099] is 2%

[…]. anthracis for O=C(O)CCC(=O)NCc1ccc(C(=O)O)cc1 [compound 238] is 14%

[…]. anthracis for CC(=NNC(=O)COc1ccc(C)cc1)C(=O)O [compound 182] is 14%

[…]. anthracis for O=C(Nc1ncccc1Cl)c1ccc(Br)cc1 [compound 137] is 7%

[…]. anthracis for CCSc1ccccc1C(=O)Nc1ccc(S(N)(=O)=O)cc1 [compound 121] is 0%

[…]. anthracis for O=C(NNC(=O)c1ccccc1C(=O)O)c1ccc(Cl)cc1 [compound 195] is 0%

[…]. anthracis for Cc1ccc(SCc2cc(=O)n3ncnc3[nH]2)cc1 [compound 231] is 0%

[…]. anthracis for Nc1[nH][nH]c(=O)c1/N=N/c1ccccc1F [compound 254] is 0%

[…]. anthracis for O=C(O)c1ccc2[nH]c(CCc3nc4cc(C(=O)O)ccc4[nH]3)nc2c1 [compound 235] is 0%

[…]. anthracis for O=C1NC(=O)/C(=C\c2ccc(O)c(I)c2)N1 [compound 194] is 62%
